Readings of pIC50 for the listed molecules
System: SW-620
assay-explanation: Cytotoxicity against human SW-620 cells assessed as reduction in cell viability after 72 hrs by MTT assay
Assay type: functional, cell-based
condition-context: SW-620, 72 h
pIC50: −log10 of the molar value. Residues, ends and D or L forms follow the SMILES beside them. *: point of attachment. X2 = CC(=O)O[C@@]12CO[C@@H]1C[C@H](O)[C@@]1(C)C(=O)[C@H](O)C3=C(C)[C@@H](OC(=O)[C@H](OC(=O)OCc4ccc(N*)cc4)[C@@H](NC(=O)OC(C)(C)C(F)(F)F)c4ccccc4)C[C@@](O)([C@@H](OC(=O)c4cccc(F)c4)[C@H]21)C3(C)C
measured-attribute: pIC50

molecule="CC[C@H](C)[C@H](NC(=O)CNC(=O)[C@H](CCSC)NC(=O)[C@@H]1CCCN1C(=O)CNC(C)=O)C(=O)N[C@@H](C)C(=O)NCC(=O)N[C@@H](CCC(N)=O)C(=O)N[C@@H](CC(C)C)C(=O)Nc1ccc(COC(=O)O[C@@H](C(=O)O[C@H]2C[C@@]3(O)[C@@H](OC(=O)c4cccc(F)c4)[C@@H]4[C@]5(OC(C)=O)CO[C@@H]5C[C@H](O)[C@@]4(C)C(=O)[C@H](O)C(=C2C)C3(C)C)[C@@H](NC(=O)OC(C)(C)C(F)(F)F)c2ccccc2)cc1 (Ac-GPMGIAGQL-X2)" limit_qualifier=< number=3.70
molecule="CC[C@H](C)[C@H](NC(=O)CNC(=O)[C@H](CCC(N)=O)NC(=O)[C@@H]1CCCN1C(=O)CNC(C)=O)C(=O)N[C@@H](C)C(=O)N[C@@H](CCSC)C(=O)N[C@@H](CCC(N)=O)C(=O)N[C@@H](CC(C)C)C(=O)Nc1ccc(COC(=O)O[C@@H](C(=O)O[C@H]2C[C@@]3(O)[C@@H](OC(=O)c4cccc(F)c4)[C@@H]4[C@]5(OC(C)=O)CO[C@@H]5C[C@H](O)[C@@]4(C)C(=O)[C@H](O)C(=C2C)C3(C)C)[C@@H](NC(=O)OC(C)(C)C(F)(F)F)c2ccccc2)cc1 (Ac-GPQGIAMQL-X2)" limit_qualifier== number=5.18
